# target_under_test: T1, human GARP-TGF-β1 complex (recombinant complex of human GARP and latent human TGF-β1) (human, UniProt Q14392 20-627; P01137 30-278; P01137 279-390)
# T1 construct: also called huGARP-TGF-β1; hGARP-TGF-β1
# procedure_summary: SPR Biacore T200, CM5 chip coated with GARP-TGF-β1 complex at 150 RU
readout_type: Fold-difference (KD vs 39B6-A)

LHG-10.6 monoclonal antibody (17H5 mAb), isotype not stated (antibody, V domains shown) VH: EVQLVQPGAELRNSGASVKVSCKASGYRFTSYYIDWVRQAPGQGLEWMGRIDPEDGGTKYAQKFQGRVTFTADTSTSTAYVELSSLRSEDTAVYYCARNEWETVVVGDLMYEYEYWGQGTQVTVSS VL: DIQMTQSPSSLSASLGDRVTITCQASQSISSYLAWYQQKPGQAPNILIYGASRLKTGVPSRFSGSGSGTSFTLTISGLEAEDAGTYYCQQYASVPVTFGQGTKVELK :: 0.5 fold

Data provenance is patent US20210324061A1.
